src = the domain aggregation screens of Martell et al. (2025)

Exercise: for every item that follows, state its recorded soluble fraction (log2).
Test: soluble fraction after stress (log2 fold change); higher = more stays soluble; pooled small domains, quantitative proteomics
Conditions: stress: 50 degC
Answer with a bare number; do not write a unit.

The sequence listed as HMDKSHYEELGVSRTATHAEIRRAYRHLMRTLHPDSNDGRVDAVRITKVNEAWNVLSQSSSRNAYDKSQV shows soluble fraction (log2) equal to -0.38

The sequence listed as HMRREIRLTVTEEIVLMKFLLTQIPYKNRDNFKTLLNDRQIRVNGSVVTWYNHPLKPGQEVTIGWFKM shows soluble fraction (log2) equal to -0.168

The sequence listed as HMIKLIKKDTNISELKMSKMPWDVMLYGKPYQVVSIKGYVHTIGGRRGENDLWMYPRDESPTYENLIEFQ shows soluble fraction (log2) equal to -2.61

The sequence listed as HMPKAPHETLSRREMEVLLLLSEGVTLTRIGDTIHVSVKTVSTYRARILQKLDLQSNAELTRYVLQHKL shows soluble fraction (log2) equal to -3.38

The sequence listed as HMGNIIITPNPASDFIKIISNSPIIKFGFYDIYGNTINKKFNDNSINISDLPVGMYLINLNERYFKLLK shows soluble fraction (log2) equal to -0.0951

The sequence listed as HMNPSIALHDWLQSSEFKGSINLFAAALGMNPRTVEAWVYGRSTPSRRFWAKLYQITNLSRFRL shows soluble fraction (log2) equal to -0.836

The sequence listed as HMIFRPALITDLDAVERHYTELLTREAETGRSSTNWSLGVYPTRQTATAAQAAGTLWVLEREGQVVASVI shows soluble fraction (log2) equal to -0.245

The sequence listed as HMREEQELFRKLLEVNGIGPKVAAGMLAGGRPEDVVSAIRREDVAWLTKLPGIGRKTAQRIVLDLKDKLD shows soluble fraction (log2) equal to -0.0754

The sequence listed as HMKGSIMIETILKELKKNNKGFNFLLEKFDISEDELMKIINDLIHDKKVFLNSNNKYEIVSD shows soluble fraction (log2) equal to -0.238

The sequence listed as HMNYSKQRETILKVLRSTRSHPSVNWIYENVKKEIPDVGLATVYRNLKQLEAAGEIMRIQGDFPEERWDGF shows soluble fraction (log2) equal to -0.911

The sequence listed as HMTWDSFIGYTVTDVQKGYLGEITDVDETTINVLLRVDHKGEELLIPAVEELITEADHEARSLTVSLPEGL shows soluble fraction (log2) equal to -0.0571

The sequence listed as HMEADERRNEILDAAETLITEKGYSKTTIIDILNQVGIAKGTFYYYFKSKEEVMDAIIERFI shows soluble fraction (log2) equal to -2.25

The sequence listed as HMAEVRTLLVPIELAGMRFDQVLAELLPEFSRSRLAAWIKSGDALLDGHDAKPKGVVRGGEQIEIRLA shows soluble fraction (log2) equal to 0.0321

The sequence listed as HMADPAVLIAELFRAMPEKRFSVKNLISATGAETREQKDYVREVVHSLSREGMIEQVAEGKYRLSASE shows soluble fraction (log2) equal to 0.171

The sequence listed as HMGDITIPDLQGMSFDQAREKLKALGLSIGKISYTSDTSKDDGVVISQGLQAGGKASKGATVDITINET shows soluble fraction (log2) equal to 0.0588

The sequence listed as HMDVQEILGALSPDEKAAIGQLTSGEKHIDQIIAATRLPAARITSALTLLQIKGYVRALPGKRFSLTEKQ shows soluble fraction (log2) equal to -0.0961

The sequence listed as HMGAVQFAEQKIHIGSRWIGKKISEFSAESDAFVILIKRGSEVVIPRGPTDIVENDVLVIHVPD shows soluble fraction (log2) equal to -2.56
